- Test method notes: protein stability index of a GFP-peptide fusion (GPS, HEK-293T) (PSI 1-6); higher = more stable;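 note: 24-mer peptide tiles fused after GFP, lentivirally expressed, FACS-sorted into six equal bins by GFP/DsRed ratio, decoded by Illumina sequencing, PSI is the read-weighted mean bin number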
- Condition description: treatment: DMSO; c terminus: a fixed tail appended
# if value of protein stability index reaches 3, tag criterion met; if it stays below, tag criterion not met

Sequence string	Assigned label
NELVKCIEELCQKREELCRQIQEE [SSNA1]	criterion met
HEDHMVNLRYGFTKEVMNKYKVHG [PPEF2]	criterion met
NYGGVIKNYFQHREFSFTLKDDIY [PRIM1]	criterion not met
YRVLLGHTLILMFIWFVCSLVYYG [SLC22A15]	criterion not met
GEGNSSQNSRNKRAVQGPEETVTQ [TNFSF13B]	criterion met
PRIIKAAPSCAIMISTYEFGKSFF [SLC25A39]	criterion not met
KPVDIWACGVILYILLVGYPPFWD [CAMK2B]	criterion met

* * *

- Test method notes: protein stability index of a GFP-peptide fusion (GPS, HEK-293T) (PSI 1-6); higher = more stable
- Condition description: treatment: MLN4924 1 uM, 8 h; c terminus: native
Readout: protein stability index

Sequence string	Readout	Experimental value
MALEPNTTFLRKSLKAALKHLGP [FANCE]	protein stability index	2.33
STMLGVFREDPKTREEFLTLIRS [GCH1]	protein stability index	2.84
IDRQKCMAHRTRYPTILQLAGYQ [TEKT4]	protein stability index	2.14
GEDRAGPQSPSPGAPPAAKPARG [TSPAN10]	protein stability index	5.13
GQRQPPPSEPTQGPEIVPRGAGP [DNAJC4]	protein stability index	5.49
FGGAAAVAILAVAIGVALALRKK [BCL2L13]	protein stability index	2.81
PKAQLSGYAVEATRNQSQLQRFL [FBF1]	protein stability index	4.21

* * *

- Test method notes: protein stability index of a GFP-peptide fusion (GPS, HEK-293T) (PSI 1-6); higher = more stable
- Condition description: treatment: DMSO; c terminus: a fixed tail appended
Class assignment keyed on protein stability index, ranges low = under 3, medium = from 3 up to 4, high = 4 and over

Sequence string	Assigned label
HAQTFVALCATDVKFISNPPSMVA [CCND1]	low
CDLFDREIVVTISWAKSIPGFSSL [ESRRA]	medium
TFICYVASSASAFLTAPLLEFLLA [CMTM3]	medium
QTLSPDMQGAYCTFPASVLAPVPT [DUSP5]	medium
SDGRQDSPAGELPKTVQQPTESEP [MATN2]	high
VAYRSLGRFEQLGKTAASWCLHVN [FSD1]	low
QEKKILELEKLAEKNIILEEKIQV [MTUS2]	high
GPSTPSPVAAQFTSEGTTLSGVDL [FCHO1]	high
ALLFTGIAVLGIVMLKRIHSLYRR [SCAMP3]	low
QVEKNKYDASAIDFSRCDMDGATL [ELF3]	high
ERERLYPFSECGEAVSDSTPFLTN [ZNF263]	high
LSNLQKESRACLERIQELEDLLAK [LMNB1]	medium
EVQAVHKNTTYDLIANIVHDGKPS [USP39]	medium
QADLLAHLVPEPDRLEEQLPWLSL [DNAAF3]	low
PQAPAPATATDTFEAAPPAPAPAP [CEBPB]	high
IGPLETMHLNAEGMLSYCDRYSEG [CRYL1]	medium
SDDEMELEETEPPLEPEDALSDAE [P3H4]	high
LSFYNARTKQVLHTFKTRFTQPLL [FSD1]	low
LLSCGKILTGCKNMLFQQNKDGIG [ACSBG2]	low
HNAHQLAAWCLHHICTNYNSVCSK [RHOBTB1]	low
HKSHRGMTPAEAEMHFLENAKKLS [EPB41L3]	high

* * *

protein stability index for assorted sequences
- Test method notes: protein stability index of a GFP-peptide fusion (GPS, HEK-293T) (PSI 1-6); higher = more stable
- Condition description: treatment: DMSO; c terminus: a fixed tail appended

Sequence string	protein stability index
SKLKMLERKGWLAPSPGVKEQAIW [PKD2L1]	2.26
SKHLKEMYQELMEMCHKPDVELLQ [TRIM43]	2.71
STLKKALPTLSHIQEAQSAWKDDF [YJU2B]	3.53
VELGKQKKKYMPYNHQHKYFFLIG [FADS1]	2.29
SHPDTSYYIRYRGAVYADSGNFER [FEM1A]	2.88
GTIHALIFAWNKWIDIKQFVWYTP [STEAP1]	3.28
GQCQVLVQRSPWLMMRMGILGRGL [TCAP]	2.2
FNGLTLLLMAVVSMFTLPVVYVKH [RTN1]	3.3
ELPAPAEVAAKNQSLEGDTTKGTS [MLH1]	5.61
TEKQNFLLFDMTTHPVTNTTEKQR [GOLPH3L]	4.31
TVSTMYYLWMCSTLALLLNFLACL [SCAMP3]	3.13
GYELGIISGALLQIKTLLALSCHE [SLC2A12]	3.61
ESALIALDSEKPKKLRFHPKQLYF [EHMT1]	2.38
HTSVVCYLLDYPNNLLSAPPPDVT [ANKRD17]	2.46
AVINDIANLPVPTIAAIDGLALGG [AUH]	2.79
FPRDHTSLALVQNGDVSAPSAILR [ANKRD40]	3.72
LRYTLWIPLYPLGCLAEAVSVIQS [HACD3]	3.08
GLEAASVYSDHTNTNNLTFLMDLP [RNF180]	3.13
CSKQSGSFRKFRYGYNNVVTIPAG [ADAMTS4]	2.3
LMSESEWRNLGVQQSQGWVHYMIH [CKS1B]	2.42
NGCRSGEIFAIDLRCGNQGKGWKA [DCAF4]	2.31
IKIIKNKKAFLNQAQIELRLLELM [DYRK1B]	2.75
TCRPPSSSESSSDSDNSGGGGGGG [ANKRD17]	5.44
TGIVSVAFLLLPLPDELGSQLPQV [MOSPD3]	2.75
RTSPSCAFRSDDTKGHPRAVSQPF [CDC14A]	3.57
VQFSHHVFLNLHTLKFYCLPDNYE [USP39]	2.89
FCMFYAVLGIPLTLVMFQSLGERM [KCNK9]	3.7
KIDYCASSNHGCQHECVNTDDSYS [MATN2]	4.37
RYNRKYLMCGGIAFWSLVTLGSSF [SPNS1]	2.68
LFGFYFCMPLVCTAIFYTLMTCEM [EDNRA]	3.11
PPVSQSRSLFSSVPSKPPMSLEPQ [ANKRD40]	4.53
LSIQVEEERRAREWLLDAPELPEG [ZMAT5]	4.71
EILRYMKEFTLLLSAANVCLDPII [P2RY14]	2.44
TVEKPGGKKVAVVLMDTQGAFDSQ [ATL3]	4.18
TLSISDVRTLSEPPDKGEEQVNFC [ZBTB22]	4.94
SYYIIQHKPKNSEELYKEIDGVAT [PTPRD]	2.98
FCEELESMIQEQFKKGKNPTGLLA [ADD1]	3.9
IIELRRTVNALEIELQAQHSMRNS [KRT36]	2.38
AATGGATLAQTISEAAIGGAMLGQ [HDAC6]	4.1
TAVAQGGWRSLWLGWGPTALRDVP [SLC25A39]	2.45
CQGQRLFEKLLQLTSQNIEIKLVS [PLD5]	2.35
GQRGNTESKTDGDDTETVPSEQSH [TCF25]	5.58
LMDGGDLPSVTDIRRPRLYLLQWL [PLK2]	2.48
LRTLDKKTFYKTADISQMLVCTAD [TAF7L]	2.61
LGNVAEVKELRPQLMTSQFISVFS [ZER1]	2.55
AGGAPGSPIPSPPGPGDDLCSDLE [HES6]	5.51
KNGLPSPERSYVFNGDFVDRGKDS [PPEF2]	4.7
SWNNNDRSLNVFVKEDDKLIFHRH [SPSB1]	3.17
ENEKDRADQTVLTEDEKKELENLA [CHGB]	5.54
PGARGLWKPPDIKGKLMVCYETLP [SPAG8]	2.56
PKPDRLLVLKVLWNDFLMCYSSRP [SLC19A2]	2.89
TPASNHLPGWEDIESKIPLNMEEP [SLC19A2]	5.28
LAHAFQPGPGIGGDAHFDEDERWT [MMP1]	4.73

* * *

- Test method notes: protein stability index of a GFP-peptide fusion (GPS, HEK-293T) (PSI 1-6); higher = more stable
- Condition description: treatment: MLN4924 1 uM, 8 h; c terminus: a fixed tail appended
Items are presented alongside their recorded protein stability index.

Sequence string	protein stability index
AGGAPGSPIPSPPGPGDDLCSDLE [HES6]	5.34
MFTSELSEKGKPYVDIQGLTASTM [KLHL12]	2.88
KSQIMSLSHSPQEDWVLLGMANGQ [TLE6]	3.12
FSDHTFRHYAYLRDSLSHLVPALR [INTS4]	2.36
ACNFEPHESFFSLFSDPRSTRLTR [ZER1]	2.92
LGPQVSLDPMKNVTCENGLPAVVS [LOXL2]	4.12
RKLSSAVRSGIVEYLSLVKGGQDV [PRIM1]	2.77
DLESQVESLREELICLKKNHEEEV [KRT34]	5.13
NYYRTWNVVVHDWLYYYAYKDFLW [SOAT1]	2.94
IKLLQSSGADFHKKDKCGRTPLHY [ANKRD44]	2.6
QLFSQIGPCKNCKMIMDTAGNDPY [TIA1]	2.45
LLSRLEEEEQDILQRLRENAAHLG [TRIM39]	3.71
LIDQRYFQVLCSINSIIHNPRAPV [CEP70]	2.07
